Where do these numbers come from? They come from ChEMBL document CHEMBL3507680.

Experiment: Human HepG2 cell viability assay in 384 well format
Assay type: toxicity, cell-based
Set-up: dose 125 nL, time 70.5 hour; concentration not given beside the values
Settings: HepG2 cells, read-out: Inhibition
quantityKind: cytotoxicity at 70.5 h (%)
I only need the number, in %, no unit after it.

Reported cytotoxicity at 70.5 h of O=C(Cc1ccc(O)c(F)c1)N1CCC2(CCNCC2)CC1 : -1.13

Reported cytotoxicity at 70.5 h of CC(C)(C)OC(=O)N1CSC[C@@H]1C(=O)NCc1ccc(C#N)cc1 : -3.01

Reported cytotoxicity at 70.5 h of CC(C)CN1CCCC2(CCN(c3ccccn3)C2)C1 (centres undefined) : 8.64

Reported cytotoxicity at 70.5 h of CN(C)C(=O)CN1CCN(C(=O)Cc2csc(-c3ncccn3)n2)CC1 : -4.31

Reported cytotoxicity at 70.5 h of CCn1cc(-c2cc(C(F)(F)F)n(CCCN)n2)cn1 : 1.14

Reported cytotoxicity at 70.5 h of CC(C)c1cc(NC(=O)c2ccc([S+]([O-])C(C)C)cc2)[nH]n1 (centres undefined) : -3.24

Reported cytotoxicity at 70.5 h of FC(F)(F)Oc1ccc(CN2CCCC(n3cncn3)C2)cc1 (centres undefined) : -10.6

Reported cytotoxicity at 70.5 h of c1cnc(CC2COCCN(C3CCCCC3)C2)cn1 (centres undefined) : 1.48

Reported cytotoxicity at 70.5 h of O=C(c1cnc(-c2cccs2)s1)N1CCCC(n2ccnc2)C1 (centres undefined) : -8.31

Reported cytotoxicity at 70.5 h of CC(C)C(=O)N1CCCC(Cc2cccnc2)C1 (centres undefined) : -0.448

Reported cytotoxicity at 70.5 h of Cc1nc(C)n(CC2CN(Cc3ccc4c(c3)OCCO4)CCO2)n1 (centres undefined) : -14.3

Reported cytotoxicity at 70.5 h of CC(C)Nc1ccnc(-c2ccnc3c2ccn3C)n1 : -9.28

Reported cytotoxicity at 70.5 h of COCC(C)NCc1ccc2[nH]c(C)c(C)c2c1 (centres undefined) : -7.86

Reported cytotoxicity at 70.5 h of O=C(O)[C@@H]1CN(C(=O)CSCCN2CCCC2)C[C@H]1c1ccccc1 : 1.16

====

Exercise: state measured cytotoxicity at 70.5 h for each of the compounds provided.
Assay: Human HepG2 cell viability assay in 384 well format
Type: toxicity, cell-based
Set-up: dose 125 nL, time 70.5 hour; concentration not given beside the values
Settings: HepG2 cells, read-out: Inhibition
I only need the number, in %, no unit after it.

Reported cytotoxicity at 70.5 h of O=C(c1csc(-c2ncccn2)n1)N1CCN2CCCCC2C1 (configuration not stated) : -5.52

Reported cytotoxicity at 70.5 h of CC(=O)N1CCOCC2(CN(Cc3ccccn3)CCO2)C1 (configuration not stated) : -9.92

Reported cytotoxicity at 70.5 h of CNC(=O)[C@@]12CCO[C@@H]1CCN(S(=O)(=O)c1cccc(C)c1)C2 : -5.31

Reported cytotoxicity at 70.5 h of COc1ccccc1CNC(=O)Cn1ncc2c1c(C)nn2C : 0.128

Reported cytotoxicity at 70.5 h of CC(C)N(C)C(=O)c1ccc(Cl)c(NC(=O)CCN2C(=O)CCC2=O)c1 : -9.99

Reported cytotoxicity at 70.5 h of O=C(Cc1cccc(O)c1)NCCNc1nccc(C(F)(F)F)n1 : -7.29

Reported cytotoxicity at 70.5 h of CN(CCc1cn[nH]c1)Cc1nc(Cc2cccc(C(F)(F)F)c2)no1 : 3.03

Reported cytotoxicity at 70.5 h of O=C(c1ccccn1)N1CCC2(CC1)COC(COCC1CCCC1)C2 (configuration not stated) : -13.8

Reported cytotoxicity at 70.5 h of CC(=O)N(Cc1ncc(C)o1)C1CCN(CCc2cccs2)C1 (configuration not stated) : 17.8

Reported cytotoxicity at 70.5 h of CCN(CC)CC1CCN(C(=O)CCn2cccn2)CC1 : -1.21

Reported cytotoxicity at 70.5 h of CC(C)(C)N1CC(C(=O)NCc2nc(C3CCCCC3)no2)CC1=O (configuration not stated) : -4.38

Reported cytotoxicity at 70.5 h of Cn1nccc1C(=O)N1CCOC(Cc2ccc(F)cc2)C1 (configuration not stated) : -3.53

Reported cytotoxicity at 70.5 h of CCOCCN1CCN(Cc2nnc(C3CC3)o2)CC1C (configuration not stated) : -3.62

Reported cytotoxicity at 70.5 h of CN(C)C(=O)[C@@H]1CCO[C@@H]2CCN(Cc3ccc4c(c3)OCO4)C[C@@H]21 : -21.3

Reported cytotoxicity at 70.5 h of O=C1CC[C@@H](C(=O)N2CCc3[nH]nc(COc4cccc(Cl)c4)c3C2)N1 : -8.37

Reported cytotoxicity at 70.5 h of CC(C)CCS(=O)(=O)CC(=O)N1CCCC1c1cnn(C)c1 (configuration not stated) : -5.18

Reported cytotoxicity at 70.5 h of c1nc2c(c(C3CC3)n1)CCN(Cc1ccc3c(c1)OCO3)CC2 : -4.69

Reported cytotoxicity at 70.5 h of COc1cc(CN(C)C(=O)NCc2ccccn2)ccc1SC : 15.9

Reported cytotoxicity at 70.5 h of O=C(NC1CCCC1)c1cc(Cn2cnc3ccccc32)on1 : -1.14

Reported cytotoxicity at 70.5 h of CC(NCc1cc(O)c2cccc(F)c2n1)c1ccc(S(C)(=O)=O)cc1 (configuration not stated) : -12.6

Reported cytotoxicity at 70.5 h of COc1ccc2nc(CNC(=O)C3CC4(CCNCC4)CN3C)[nH]c2c1 (configuration not stated) : -20.5

Reported cytotoxicity at 70.5 h of Cn1ccc(C(=O)N2CCC3(CCC(=O)N(C4CCCC4)C3)CC2)n1 : 12.2

Reported cytotoxicity at 70.5 h of CCOCCOC(C)C(=O)NCc1cn2cc(Br)ccc2n1 (configuration not stated) : -1.73

Reported cytotoxicity at 70.5 h of CC(NS(=O)(=O)CCc1ccccn1)c1ccccc1Br (configuration not stated) : 33.3

Reported cytotoxicity at 70.5 h of CNC(=O)NC(=O)CCSc1ccccc1Cl : -1.01

Reported cytotoxicity at 70.5 h of Cc1nonc1CN(C)Cc1cnn(-c2ccc(F)cc2)c1 : 0.663

Reported cytotoxicity at 70.5 h of CC(C)Cc1noc(CNc2cccc(-c3nnnn3C)c2)n1 : -11

Reported cytotoxicity at 70.5 h of N#Cc1cccnc1NCc1ccc(S(=O)(=O)NCC2CCCO2)cc1 (configuration not stated) : 14

Reported cytotoxicity at 70.5 h of CN1CCOC(CN(C(=O)CN2CCCC2=O)c2nccs2)C1 (configuration not stated) : 9.36

Reported cytotoxicity at 70.5 h of C[C@@H]1CN(C2CCN(c3ccccc3F)CC2)C[C@]1(C)O : -6.48

Reported cytotoxicity at 70.5 h of CCc1nc(CN(C)CC(N)=O)cs1 : -4.25

Reported cytotoxicity at 70.5 h of Cc1ccc(CN2CCN(Cc3cc(C)n[nH]3)CC2CCO)cc1 (configuration not stated) : 12.1

Reported cytotoxicity at 70.5 h of CCc1n[nH]c(C2CN(CCCS(C)(=O)=O)CCO2)n1 (configuration not stated) : 32.1

Reported cytotoxicity at 70.5 h of O=C(C1CCN(Cc2nc(-c3ccco3)no2)CC1)N1CCCC1 : -4.18

Reported cytotoxicity at 70.5 h of CCS(=O)(=O)Nc1ccc2c(c1)C1(CCOCC1)CN2C : -1.55

Reported cytotoxicity at 70.5 h of COc1cccc(OCC(=O)Nc2cc(C)cnc2OC)c1 : 2.85

Reported cytotoxicity at 70.5 h of CC(=O)N1C[C@@H]2CC[C@H](C1)N(Cc1ccc(Cn3cccn3)cc1)C2 : -19.2

Reported cytotoxicity at 70.5 h of CCN(CCSc1ccccc1)C(=O)c1cn([C@H]2CC[C@@H](N)CC2)nn1 : -11.7

Reported cytotoxicity at 70.5 h of N#CC1COCCN1S(=O)(=O)c1ccc2c(c1)CCC2 (configuration not stated) : -8.31

Reported cytotoxicity at 70.5 h of N#Cc1cc(F)ccc1CN1CCCC1Cn1cccn1 (configuration not stated) : -5.11

Reported cytotoxicity at 70.5 h of O=C(c1coc(-c2ccccc2)n1)N1CCS(=O)(=O)CC1 : -3.26

Reported cytotoxicity at 70.5 h of COCc1nc(C(=O)N2CCCCC2Cn2cc(C)cn2)cs1 (configuration not stated) : 16.8
